Source: paper PMC12401554

system: 3D HepaRG spheroids; test: HT flow-cytometry-based MN assay in 3D HepaRG spheroids; assay type: cell-based, human

# compound, target-under-test, Outcome, MN assay
measured = [
    ("CCCCN(CCCC)N=O [NDBA, N-nitrosodibutylamine]", "3D HepaRG spheroids", "+ + (2 ≤ ratio < 5)"),
    ("CCN(CC)N=O [NDEA, N-nitrosodiethylamine]", "3D HepaRG spheroids", "+ + (2 ≤ ratio < 5)"),
    ("CN(N=O)c1ccccc1 [NMPA, N-nitrosomethylphenylamine]", "3D HepaRG spheroids", "+ + (2 ≤ ratio < 5)"),
    ("CN(C)N=O [NDMA, N-nitrosodimethylamine]", "3D HepaRG spheroids", "+ + (2 ≤ ratio < 5)"),
]
